Experiment: yeast transport mutant growth inhibition pilot in 384-well plates, post-Golgi transport modulator project (AID 636)
Details: absorbance 615 nm, about 18 h, stronger effect = higher value
Overview of reported inhibition across a group of compounds:
Numbers only here, please. The scale is %.

Quick note, inhibition for `CCCNc1nc(N2CCOCC2)nc(N2CCOCC2)n1` landed at -0.52

Quick note, inhibition for `CC(C)c1nccn1S(=O)(=O)c1cc(Cl)ccc1Cl` landed at -4.03

Quick note, inhibition for CC1CCCC(N2CCN(C(=O)c3ccc(F)cc3)CC2)C1 (stereo not drawn) landed at 1.2

* * *

Experiment: HUVEC growth inhibition – cell-based, human, primary screen (AID 575);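 also: 100% = median of untreated cell wells with 0.1% DMSO on each plate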
Settings: HUVEC proliferation, CellTiter-Glo luminescence, 72 h; at 10 µM; stronger effect = lower value
quantity.name: viability (%)
Numbers only here, please. The scale is %.

Quick note, viability for O=C1CC(c2cccnc2)c2cc3c(cc2N1)OCO3 (stereo not given) landed at 88.7

Quick note, viability for `CCOc1ccc(S(=O)(=O)N2CCN(c3ccc(C)cc3C)CC2)cc1` landed at 90.1

Quick note, viability for `CCOC(=O)N1CCC(NC(=O)CN2C(=O)CCSc3ccccc32)CC1` landed at 87.5

Further cases:
Quick note, viability for CC(NC(=O)c1noc2c1CCCCC2)c1ccccc1 (stereo not given) landed at 89.1

Quick note, viability for `CCCC(=O)Nc1nc2ccc(S(N)(=O)=O)cc2s1` landed at 90
